List of IC50 tested on mPGES-1 (Homo sapiens).
Sequence (O14684 whole entry, species assumed): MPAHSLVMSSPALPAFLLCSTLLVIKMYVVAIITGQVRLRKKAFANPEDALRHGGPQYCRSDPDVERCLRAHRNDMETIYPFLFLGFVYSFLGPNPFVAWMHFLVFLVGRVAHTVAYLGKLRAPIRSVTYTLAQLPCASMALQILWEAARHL
recorded endpoint: IC50 (nM)

A: CC(C)(C)c1ccc2oc(-c3cc(COc4cccc(Cl)c4)cc(NC(=O)c4ccccc4C(F)(F)F)c3)nc2c1
B: CC(C)Oc1ccc(-c2ccc3oc(-c4cc(NS(=O)(=O)c5cc(Cl)ccc5Cl)ccc4Cl)nc3c2)cc1
Ask: Quick check, higher IC50 between A and B ? # respond with the chosen item's label
Result: B
(B: 600 nM, A: 270 nM)
